Origin of the recorded values: patent US9938273B2

Molecular target: c-KIT (Homo sapiens)
Sequence (P10721 26-976): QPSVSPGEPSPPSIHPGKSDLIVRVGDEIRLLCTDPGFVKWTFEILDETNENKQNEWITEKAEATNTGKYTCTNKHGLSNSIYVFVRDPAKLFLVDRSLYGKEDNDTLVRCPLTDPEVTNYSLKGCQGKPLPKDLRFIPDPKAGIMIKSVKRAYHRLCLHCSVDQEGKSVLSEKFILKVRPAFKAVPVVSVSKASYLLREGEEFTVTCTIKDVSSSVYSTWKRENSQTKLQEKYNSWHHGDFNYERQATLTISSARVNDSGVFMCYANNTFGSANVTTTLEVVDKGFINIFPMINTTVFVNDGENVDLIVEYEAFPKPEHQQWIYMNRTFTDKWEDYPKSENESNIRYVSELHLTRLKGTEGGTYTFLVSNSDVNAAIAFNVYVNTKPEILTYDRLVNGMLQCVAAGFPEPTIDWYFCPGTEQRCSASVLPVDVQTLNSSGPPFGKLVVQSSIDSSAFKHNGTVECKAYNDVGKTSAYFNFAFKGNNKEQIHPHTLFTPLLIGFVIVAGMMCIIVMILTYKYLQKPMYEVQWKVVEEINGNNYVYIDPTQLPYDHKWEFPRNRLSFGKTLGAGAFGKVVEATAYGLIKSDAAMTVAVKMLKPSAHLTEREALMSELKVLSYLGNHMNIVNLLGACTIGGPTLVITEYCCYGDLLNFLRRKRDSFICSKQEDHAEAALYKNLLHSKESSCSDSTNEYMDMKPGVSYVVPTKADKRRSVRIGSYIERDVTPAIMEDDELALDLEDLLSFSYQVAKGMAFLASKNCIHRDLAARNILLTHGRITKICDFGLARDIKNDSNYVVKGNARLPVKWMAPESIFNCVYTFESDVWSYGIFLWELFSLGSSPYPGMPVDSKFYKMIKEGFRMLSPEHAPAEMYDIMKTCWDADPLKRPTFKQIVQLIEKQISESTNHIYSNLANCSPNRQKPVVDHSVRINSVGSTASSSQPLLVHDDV
Assay: AlphaScreen kinase assay with recombinant enzyme, c-KIT
Settings: 100ATP, 8pt, GMean
# IC50 per record follows

>>> val("CC(C)(C#N)CNC(=O)c1cccc(-c2cnc3[nH]c(C4=CCCCC4)cc3c2)n1 [Compound P-0123]")
"0.0001 to 10 µM"
>>> val("N[C@H]1CCN(C(=O)c2cc(-c3cnc4[nH]c(-c5ccccc5)cc4c3)ccn2)C1 [Compound P-0046]")
"0.0001 to 10 µM"
>>> val("NC1CCN(C(=O)c2cc(-c3cnc4[nH]c(-c5ccccc5)cc4c3)ccn2)CC1 [Compound P-0038]")
"0.0001 to 10 µM"
>>> val("Cc1ccc(-c2cnc3[nH]c(-c4ccccc4)cc3c2)cc1C(=O)N1CCC(N)CC1 [Compound P-0035]")
"0.0001 to 10 µM"
>>> val("c1ccc(-c2cc3cc(-c4cccc(OC5CCNCC5)n4)cnc3[nH]2)cc1 [Compound P-0050]")
"0.0001 to 10 µM"

Query: IC50; subject: CN1CCC(NC(=O)c2n[nH]c3ccc(-c4cnc5[nH]c(-c6ccccc6)cc5c4)cc23)CC1 [Compound P-0022]
0.0001 to 10 µM

Try this molecule next: CC(C)(C#N)NC(=O)c1cccc(-c2cnc3[nH]c(-c4cnn(C(F)F)c4)cc3c2)n1 [Compound P-0164]
50 to 100 µM

Try this molecule next: CN[C@H]1CCN(C(=O)c2cccc(-c3cnc4[nH]c(-c5ccccc5)cc4c3)n2)C1 [Compound P-0051]
0.0001 to 10 µM

Try this molecule next: CC(C)(C)OC(=O)NC1CCN(C(=O)c2cccc(-c3cnc4[nH]c(-c5ccccc5)cc4c3)n2)CC1 [Compound P-0017]
10 to 50 µM

Try this molecule next: CC(C)(C#N)NC(=O)c1cccc(-c2cnc3[nH]c(-c4cnc(C(F)(F)F)nc4)cc3c2)n1 [Compound P-0204]
50 to 100 µM

###

Target: UniProtKB P10721
Assay: AlphaScreen kinase assay with recombinant enzyme, c-KIT
Settings: 100ATP, 8pt, GMean
MEASUREMENT TYPE: IC50

Illustrative cases are given below, each with its answer.
>>> val("Cn1ccc(NC(=O)c2cccc(-c3cnc4[nH]c(-c5ccccc5)cc4c3)n2)n1 [Compound P-0066]")
"50 to 100 µM"
>>> val("CNC(=O)C1CCN(C(=O)c2cccc(-c3cnc4[nH]c(-c5ccccc5)cc4c3)n2)C1 (stereo not shown) [Compound P-0096]")
"10 to 50 µM"
>>> val("CNC(=O)Nc1ccc(-c2cnc3[nH]c(-c4ccccc4)cc3c2)cc1 [Compound P-0006]")
"0.0001 to 10 µM"

Query: IC50; subject: O=C(c1cccc(-c2cnc3[nH]c(-c4ccccc4)cc3c2)n1)N1CCCC(O)C1 (stereo not shown) [Compound P-0069]
10 to 50 µM

Try this molecule next: O=C(c1cccc(-c2cnc3[nH]c(-c4cnn(CC(F)(F)F)c4)cc3c2)n1)N1CCC(F)(F)C1 [Compound P-0112]
10 to 50 µM

###

# IC50 per record follows
Target: FLT3-ITD (Homo sapiens, UniProt P36888)
Assay: AlphaScreen kinase assay with recombinant enzyme, FLT3-ITD
Details: 8pt; read-out: FLT3_ITD 8pt: IC50

Illustrative cases are given below, each with its answer.
>>> val("CC(C)(C#N)NC(=O)c1cccc(-c2cnc3[nH]c(-c4ccc(C(F)(F)F)nc4)cc3c2)n1 [Compound P-0201]")
"0.0001 to 10 µM"
>>> val("O=C(c1cccc(-c2cnc3[nH]c(-c4ccccc4)cc3c2)n1)N1CCC(N2CCOCC2)C1 (stereo not drawn) [Compound P-0102]")
"0.0001 to 10 µM"

Query: IC50; subject: CC(=O)NC1CCN(C(=O)c2cccc(-c3cnc4[nH]c(-c5ccccc5)cc4c3)n2)CC1 [Compound P-0020]
0.0001 to 10 µM

Try this molecule next: O=C(c1cccc(-c2cnc3[nH]c(-c4ccccc4)cc3c2)n1)N1CCC(C(F)(F)F)C1 (stereo not drawn) [Compound P-0103]
0.0001 to 10 µM

Try this molecule next: CC(C)(O)CNC(=O)c1cccc(-c2cnc3[nH]c(-c4ccccc4)cc3c2)n1 [Compound P-0150]
0.0001 to 10 µM

Try this molecule next: COc1cc(-c2cc3cc(-c4cccc(C(=O)NCC(C)(C)C#N)n4)cnc3[nH]2)ccn1 [Compound P-0154]
0.0001 to 10 µM

Try this molecule next: c1ccc(-c2cc3cc(-c4cccc(OC5CCNCC5)n4)cnc3[nH]2)cc1 [Compound P-0050]
0.0001 to 10 µM
